The reported numbers originate from patent US9790189B2.

EXPERIMENT: Caco-2 permeation assay (Method 5)
Assay type: in vitro ADME
PARTICULARS: human, pH 7.2; Caco-2, 2 μM test compound, 2 h; read-out: Papp B−A (Mari)
READOUT_KIND: Papp B→A at 2 h, 2 µM (×10⁻⁶ cm/s)
Answers are plain numbers, in ×10⁻⁶ cm/s.

COMPOUND | Papp B→A at 2 h, 2 µM / ×10⁻⁶ cm/s
COc1cc(F)ccc1-c1nc(Nc2cc(F)cc(CS(C)(=N)=N)c2)ncc1F | 28

Give Papp B→A at 2 h, 2 µM for each of the items listed below.
1. CS(=N)(=N)Cc1cc(Nc2ncc(F)c(-c3ccc(F)cc3F)n2)cc(S(F)(F)(F)(F)F)c1
2. COc1cc(F)ccc1-c1nc(Nc2cc(F)cc(CS(C)(=N)=NC#N)c2)ncc1F (racemic)
3. COc1cc(F)ccc1-c1nc(Nc2cc(CS(C)(=N)=N)cc(S(F)(F)(F)(F)F)c2)ncc1F

1. 3.57
2. 19.9
3. 5.19
